Measured growth, listed per entry.
Tested on: SF-268 CNS
Test: NCI-60 one-dose screen, 48 h (100 = growth as untreated, 0 = no growth, -100 = all killed)
Conditions: 10 µM unless noted
Description: Cells are grown in 96 well plates and exposed to the test compound for 48 hours. Compounds are tested at a single concentration, which is 10^-5 M for most compounds. The reported endpoint is percent growth (GI% or GIPRCNT), where numbers from 0 - 100% represent growth inhibition, and numbers from -100% - 0 represent cell death. For example, a value of 40 represents 60% growth inhibition. A value of 0 means no net growth occurred over the course of the experiment. […]
About 83,000 compounds went through this panel and 20% of them were active in at least one assay; those are over-represented in the sample as a whole.
Write down the numeric answer in % and omit the unit.

input: Consider the compound Cc1ccc(/C=C2\CNC/C(=C\c3ccc(C)cc3)C2=O)cc1 and give its measured growth.
output: -8.61

input: # iterate: COC(=O)c1ccc(=O)c2nc3/c(=C/O)c(O)cc(=O)c3[nH]c12
output: 14.5

input: # iterate: O=C(c1ccccc1)C(Br)C(Br)c1ccccc1 (stereo unspecified)
output: 102

input: # iterate: N#CC(I)CS(=O)(=O)c1ccccc1 (stereo unspecified)
output: 86.8

input: # iterate: C1=C(c2ccccc2)c2ccccc2C1
output: 96.6

###

Test system: SF-539 CNS
Test: NCI-60 one-dose screen, 48 h
Details: 10 µM unless noted
Procedure: Cells are grown in 96 well plates and exposed to the test compound for 48 hours. Compounds are tested at a single concentration, which is 10^-5 M for most compounds. The reported endpoint is percent growth (GI% or GIPRCNT), where numbers from 0 - 100% represent growth inhibition, and numbers from -100% - 0 represent cell death. For example, a value of 40 represents 60% growth inhibition. A value of 0 means no net growth occurred over the course of the experiment. […]
Compounds without any hit were thinned out: in the full panel of roughly 83,000, 20% have a hit. Calls of active or inactive are those of the source. The calls were made as follows: active = growth percent below 10; inactive = the rest.
The reply should name one outcome from active, inactive

Field: example entries. Status: answers known.
COc1cc([C@@H]2c3cc4c(cc3[C@H](OC3OC5COC(c6ccccc6)OC5C(O)C3O)[C@H]3COC(=O)[C@H]23)OCO4)cc(OC)c1OC (some centres undefined)
inactive
Nc1ccc(-c2ccc(N)c(S(=O)(=O)O)c2)cc1S(=O)(=O)O
inactive
O=C(O)c1cc2c(s1)C(=O)c1sccc1C2=O
active
O=C(c1ccccc1)c1cc2ccccc2oc1=O
inactive
CC1(C)OCC(COC(c2ccccc2)(c2ccccc2)c2ccccc2)O1 (centres undefined)
inactive
C/C=C/c1cc2c(c(=O)o1)C(=O)[C@@H](O)[C@H](C)O2
inactive

input: Assay outcome for CC(=O)Nc1ccc(C(=O)CCl)cc1 : what was it?
output: inactive

input: # iterate: CCCCCCCCCCCC[n+]1ccccc1 (tested in a mixture with another compound)
output: active

###

system: SF-539 CNS; assay: NCI-60 one-dose screen, 48 h (100 = growth as untreated, 0 = no growth, -100 = all killed); conditions: 10 µM unless noted
About 83,000 compounds went through this panel and 20% of them were active in at least one assay; those are over-represented in the sample as a whole.
Measured growth, listed per entry.
Write down the numeric answer in % and omit the unit.

CCOC(=O)c1c(C)[nH]c2ccc(O)cc12
98.1
Cc1ccc2c(c1)sc(-c1ccc(N(C)C)cc1)[n+]2C
12.5
Oc1ccc2c(c1)CCc1ccccc1-2
89.9

input: Consider the compound COc1cc(/C=C/C(=O)CC(=O)/C=C/c2ccc(O)c(OC)c2)ccc1O and give its measured growth.
output: 14.8

input: # iterate: COC(=O)c1nc(=S)[nH]c(C(=O)OC)c1C(=O)c1ccc(Cl)c(Cl)c1
output: 102
